Origin of the recorded values: paper PMC11348385

Target: VEGFR-2 (Homo sapiens, UniProt P35968)
Sequence (P35968 20-1356): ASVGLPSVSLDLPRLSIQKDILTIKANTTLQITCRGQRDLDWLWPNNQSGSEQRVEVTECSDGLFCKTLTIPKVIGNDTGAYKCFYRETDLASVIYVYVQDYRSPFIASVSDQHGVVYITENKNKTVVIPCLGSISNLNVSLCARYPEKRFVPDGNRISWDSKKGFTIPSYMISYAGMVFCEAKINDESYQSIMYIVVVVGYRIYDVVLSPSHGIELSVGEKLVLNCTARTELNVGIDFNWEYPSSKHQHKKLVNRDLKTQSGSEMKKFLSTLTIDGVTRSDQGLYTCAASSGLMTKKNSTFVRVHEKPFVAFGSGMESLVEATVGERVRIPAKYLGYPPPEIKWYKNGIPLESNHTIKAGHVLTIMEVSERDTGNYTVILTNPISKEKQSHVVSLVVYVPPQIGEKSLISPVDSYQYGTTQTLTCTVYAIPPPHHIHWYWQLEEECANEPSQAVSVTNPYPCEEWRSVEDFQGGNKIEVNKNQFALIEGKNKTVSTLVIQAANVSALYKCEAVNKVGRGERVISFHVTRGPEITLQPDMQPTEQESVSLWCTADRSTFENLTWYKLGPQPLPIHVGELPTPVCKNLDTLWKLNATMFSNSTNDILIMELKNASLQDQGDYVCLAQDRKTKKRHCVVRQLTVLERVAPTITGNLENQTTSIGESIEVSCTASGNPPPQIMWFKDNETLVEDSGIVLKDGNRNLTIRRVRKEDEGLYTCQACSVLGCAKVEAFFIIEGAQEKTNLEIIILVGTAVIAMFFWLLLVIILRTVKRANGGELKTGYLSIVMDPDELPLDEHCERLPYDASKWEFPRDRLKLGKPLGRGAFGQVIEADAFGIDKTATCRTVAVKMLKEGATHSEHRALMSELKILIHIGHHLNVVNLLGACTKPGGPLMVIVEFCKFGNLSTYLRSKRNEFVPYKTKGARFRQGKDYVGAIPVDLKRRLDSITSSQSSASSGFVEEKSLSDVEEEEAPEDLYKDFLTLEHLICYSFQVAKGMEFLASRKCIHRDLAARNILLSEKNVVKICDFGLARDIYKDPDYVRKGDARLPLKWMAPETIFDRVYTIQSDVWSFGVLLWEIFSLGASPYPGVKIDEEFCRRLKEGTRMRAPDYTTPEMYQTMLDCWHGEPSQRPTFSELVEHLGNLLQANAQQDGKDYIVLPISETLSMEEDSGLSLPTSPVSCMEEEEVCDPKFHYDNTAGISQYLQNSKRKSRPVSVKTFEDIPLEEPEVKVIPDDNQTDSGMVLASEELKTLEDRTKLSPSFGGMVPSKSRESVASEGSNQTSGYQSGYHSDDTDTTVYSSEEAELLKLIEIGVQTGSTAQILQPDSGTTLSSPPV
Measure: pIC50
Give bare numbers, as −log10 of the molar value.

Clc1ccc(-c2nnc(Nc3ccc(C4=NNC(c5ccccc5)C4)cc3)c3ccccc23)cc1 (stereo not drawn) [Compound 3a]: 5.90
O=c1nc(-c2ccc(Nc3nnc(-c4ccc(Cl)cc4)c4ccccc34)cc2)cc(-c2ccc(Cl)cc2)[nH]1 [Compound 4b]: 7.05
COc1ccc(C2CC(c3ccc(Nc4nnc(-c5ccc(Cl)cc5)c5ccccc45)cc3)=NN2)cc1 (stereo not drawn) [Compound 3e]: 6.92
S=c1nc(-c2ccc(Nc3nnc(-c4ccc(Cl)cc4)c4ccccc34)cc2)cc(-c2ccc(Cl)cc2)[nH]1 [Compound 5b]: 6.89
Oc1ccc(C2CC(c3ccc(Nc4nnc(-c5ccc(Cl)cc5)c5ccccc45)cc3)=NN2)cc1 (stereo not drawn) [Compound 3d]: 6.15
Clc1ccc(-c2nnc(Nc3ccc(C4=NNC(c5ccc(Cl)cc5)C4)cc3)c3ccccc23)cc1 (stereo not drawn) [Compound 3b]: 6.10
Oc1ccccc1C1CC(c2ccc(Nc3nnc(-c4ccc(Cl)cc4)c4ccccc34)cc2)=NN1 (stereo not drawn) [Compound 3c]: 6.08
S=c1nc(-c2ccc(Nc3nnc(-c4ccc(Cl)cc4)c4ccccc34)cc2)cc(-c2ccccc2)[nH]1 [Compound 5a]: 6.12

Could you now look at the following compound, please?
Prompt: Checklist item: pIC50 tested on VEGFR-2 (Homo sapiens, UniProt P35968), entry O=c1nc(-c2ccc(Nc3nnc(-c4ccc(Cl)cc4)c4ccccc34)cc2)cc(-c2ccccc2)[nH]1 [Compound 4a] , value?
Response: 6.82
